# Tested on: OXA-58
# RUN_DESCRIPTION: Amperometric detection of beta-lactamase type producing bacteria strains
# Format: cell-based
# APPLIED_CONDITIONS: 6.0 mM substrate, HMRZ-86 1.2 mM; qualitative

COMPOUND	detection (oxidation current)
N#Cc1ccc(C=CC2=C(C(=O)O)N3C(=O)C(NC(=O)C(F)(F)F)C3SC2)cc1 (stereo not shown)	capable of detecting
N#Cc1ccc(C=CC2=C(C(=O)O)N3C(=O)C(NC=O)C3SC2)cc1 (stereo not shown)	capable of detecting

====

# Test system: CTXM
# RUN_DESCRIPTION: Amperometric detection of beta-lactamase type producing bacteria strains
# Assay type: cell-based
# APPLIED_CONDITIONS: 6.0 mM substrate, HMRZ-86 1.2 mM; qualitative
MEASURE_NAME: detection (oxidation current)

MOLECULE	TARGET_OR_TEST_SYSTEM	MEASURE_NAME	OBSERVED_VALUE
N#Cc1ccc(C=CC2=C(C(=O)O)N3C(=O)C(NC=O)C3SC2)cc1 (stereo not shown) [H]	CTXM	detection (oxidation current)	capable of detecting
CC(C)(ON=C(C(=O)N[C@@H]1C(=O)N2C(C(=O)O)=C(C=Cc3ccc([N+](=O)[O-])cc3[N+](=O)[O-])CS[C@H]12)c1csc(N)n1)C(=O)O.O=C(O)C(F)(F)F [HMRZ-86, reference compound]	CTXM	detection (oxidation current)	capable of detecting
N#Cc1ccc(C=CC2=C(C(=O)O)N3C(=O)C(NC(=O)C(F)(F)F)C3SC2)cc1 (stereo not shown) [CF3]	CTXM	detection (oxidation current)	capable of detecting

====

# System: OXA-40
# RUN_DESCRIPTION: Amperometric detection of beta-lactamase type producing bacteria strains
# Type: cell-based
# APPLIED_CONDITIONS: 6.0 mM substrate, HMRZ-86 1.2 mM; qualitative

MOLECULE	detection (oxidation current)
N#Cc1ccc(C=CC2=C(C(=O)O)N3C(=O)C(NC=O)C3SC2)cc1 (stereo not shown)	capable of detecting
N#Cc1ccc(C=CC2=C(C(=O)O)N3C(=O)C(NC(=O)C(F)(F)F)C3SC2)cc1 (stereo not shown)	capable of detecting

====

# System: OXA-48
# RUN_DESCRIPTION: Amperometric detection of beta-lactamase type producing bacteria strains
# Format: cell-based
# APPLIED_CONDITIONS: 6.0 mM substrate, HMRZ-86 1.2 mM; qualitative

COMPOUND	TARGET_OR_TEST_SYSTEM	detection (oxidation current)
CC(C)(ON=C(C(=O)N[C@@H]1C(=O)N2C(C(=O)O)=C(C=Cc3ccc([N+](=O)[O-])cc3[N+](=O)[O-])CS[C@H]12)c1csc(N)n1)C(=O)O.O=C(O)C(F)(F)F [HMRZ-86, reference compound]	OXA-48	capable of detecting
N#Cc1ccc(C=CC2=C(C(=O)O)N3C(=O)C(NC=O)C3SC2)cc1 (stereo not shown) [H]	OXA-48	capable of detecting
N#Cc1ccc(C=CC2=C(C(=O)O)N3C(=O)C(NC(=O)C(F)(F)F)C3SC2)cc1 (stereo not shown) [CF3]	OXA-48	capable of detecting
